Biological target: UniProt:Q309Z2
Sequence (Q309Z2 1-430): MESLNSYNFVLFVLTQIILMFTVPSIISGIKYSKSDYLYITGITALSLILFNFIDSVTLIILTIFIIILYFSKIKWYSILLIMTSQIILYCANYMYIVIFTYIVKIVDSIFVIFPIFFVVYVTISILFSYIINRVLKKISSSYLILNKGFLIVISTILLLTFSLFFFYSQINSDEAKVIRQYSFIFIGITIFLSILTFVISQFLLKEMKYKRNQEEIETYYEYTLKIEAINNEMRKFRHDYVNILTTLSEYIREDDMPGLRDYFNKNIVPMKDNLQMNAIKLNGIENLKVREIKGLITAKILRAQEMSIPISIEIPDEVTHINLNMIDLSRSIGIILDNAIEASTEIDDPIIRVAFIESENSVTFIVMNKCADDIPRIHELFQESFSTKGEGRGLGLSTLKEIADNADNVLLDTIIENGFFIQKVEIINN
Type: cell-based, S. aureus
Conditions: read-out: AgrC-IV IC50; second-generation analogues, fluorescence reporter strain; 200 fM − 10 μM
Positions of bridges follow the written chain, without caps; N, C: chain ends. Residues, ends and D or L forms follow the SMILES beside them.
MEASURED_ENDPOINT: log10 IC50 (log10 of the value in nM)
A difference of one corresponds to tenfold IC50; all values are log10 with IC50 in nM.

Illustrative cases are given below, each with its answer.
CC(C)C[C@@H]1NC(=O)[C@H](Cc2ccccc2)NC(=O)[C@H](C)NC(=O)[C@@H](NC(=O)[C@H](C)NC(=O)[C@H](C)N)CSC(=O)[C@H](CC(C)C)NC1=O [AIP-III I1A/N2A/D4A, A-A-(C-A-F-L-L)] (H-AACAFLL; thioester 3-C)
-1.79
CC[C@H](C)[C@H](NC(=O)CN)C(=O)N[C@@H](CC(N)=O)C(=O)N[C@H]1CSC(=O)[C@H](CC(C)C)NC(=O)[C@H](CC(C)C)NC(=O)[C@H](Cc2ccccc2)NC(=O)[C@H](CC(=O)O)NC1=O [G-AIP-III, G-I-N-(C-D-F-L-L)] (H-GINCDFLL; thioester 4-C)
2.02
CC(=O)N[C@H]1CSC(=O)[C@H](CC(C)C)NC(=O)[C@H](CC(C)C)NC(=O)[C@H](Cc2c[nH]c3ccccc23)NC(=O)[C@H](C)NC1=O [Ac-(C-A-W-L-L)] (Ac-CAWLL; thioester 1-C)
-1.44
CC[C@H](C)[C@H](N)C(=O)N[C@@H](C)C(=O)N[C@H]1CSC(=O)[C@H](CC(C)C)NC(=O)[C@H](CC(C)C)NC(=O)[C@H](Cc2ccccc2)NC(=O)[C@H](C)NC1=O [AIP-III N2A/D4A, I-A-(C-A-F-L-L)] (H-IACAFLL; thioester 3-C)
-1.66

Next molecule, log10 IC50 to be filled in.
Query block: Report log10 IC50 from UniProt:Q309Z2 testing of CC(=O)N[C@H]1CSC(=O)[C@H](CC(C)C)NC(=O)[C@H](CC(C)C)NC(=O)[C@H](Cc2ccccc2)NC(=O)[C@H](CC(=O)O)NC1=O [tAIP-III, Ac-(C-D-F-L-L)] (Ac-CDFLL; thioester 1-C)
Result block: 1.41

###

Listed below: IC50 values for each entry.
Molecular target: AgrC-I (Staphylococcus aureus, UniProt O07911)
Sequence (O07911 1-430): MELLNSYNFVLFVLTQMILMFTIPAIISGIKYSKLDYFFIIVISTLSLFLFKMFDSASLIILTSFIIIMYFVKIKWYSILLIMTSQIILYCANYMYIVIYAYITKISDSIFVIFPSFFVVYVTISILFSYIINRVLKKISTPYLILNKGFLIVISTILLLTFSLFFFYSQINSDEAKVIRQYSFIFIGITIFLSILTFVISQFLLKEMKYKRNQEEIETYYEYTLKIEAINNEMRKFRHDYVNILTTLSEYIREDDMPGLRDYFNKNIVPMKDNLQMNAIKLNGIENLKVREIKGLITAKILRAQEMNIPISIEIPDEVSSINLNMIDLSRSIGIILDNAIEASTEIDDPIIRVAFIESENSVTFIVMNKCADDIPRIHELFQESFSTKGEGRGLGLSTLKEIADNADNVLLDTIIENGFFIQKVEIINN
Format: cell-based, S. aureus
Conditions: read-out: AgrC-I IC50; fluorescence reporter strain; AIPs tested over 200 fM − 10 μM or (b1) 2.5 pM − 10 μM; triplicate
Positions of bridges follow the written chain, without caps; N, C: chain ends. Non-standard residues stand in square brackets, D forms with d. Residues, ends and D or L forms follow the SMILES beside them. *: point of attachment. X1 = CC[C@@H](C)C1NC(=O)CN(CC(=O)*)C1=O; NMeI = CC[C@H](C)[C@H](NC)C(=O)O; NMeD = CN[C@@H](CC(=O)O)C(=O)O; NMeN = CN[C@@H](CC(N)=O)C(=O)O; NMeC = CN[C@@H](CS)C(=O)O
Kindly answer with a numeric value in nM, unit omitted.

Illustrative cases are given below, each with its answer.
CC[C@H](C)[C@H](N)C(=O)N(C)[C@@H](CC(N)=O)C(=O)N[C@H]1CSC(=O)[C@H](CC(C)C)NC(=O)[C@H](CC(C)C)NC(=O)[C@H](Cc2ccccc2)NC(=O)[C@H](CC(=O)O)NC1=O [AIP-III N-Me-N2, I-NMeN-(C-D-F-L-L)] (H-I[NMeN]CDFLL; thioester 3-C)
8.04
CC[C@@H](C)C1NC(=O)CN(CC(=O)N[C@H]2CSC(=O)[C@H](CC(C)C)NC(=O)[C@H](CC(C)C)NC(=O)[C@H](Cc3ccccc3)NC(=O)[C@H](CC(=O)O)NC2=O)C1=O (stereo partly drawn) [AIP-III nN2 DKP, (I-nN)-(C-D-F-L-L)] (X1-CDFLL; thioester 1-C)
126

Query block: Answer with the recorded IC50 of CC[C@H](C)[C@H](N)C(=O)N[C@@H](CC(N)=O)C(=O)N(C)[C@H]1CSC(=O)[C@H](CC(C)C)NC(=O)[C@H](CC(C)C)NC(=O)[C@H](Cc2ccccc2)NC(=O)[C@H](CC(=O)O)NC1=O [AIP-III N-Me-C3, I-N-(NMeC-D-F-L-L)] (H-IN[NMeC]DFLL; thioester 3-C) only.
Result block: 137

Query block: Answer with the recorded IC50 of CC[C@H](C)[C@H](NC)C(=O)N[C@@H](CC(N)=O)C(=O)N[C@H]1CSC(=O)[C@H](CC(C)C)NC(=O)[C@H](CC(C)C)NC(=O)[C@H](Cc2ccccc2)NC(=O)[C@H](CC(=O)O)NC1=O [AIP-III N-Me-I1, NMeI-N-(C-D-F-L-L)] (H-[NMeI]NCDFLL; thioester 3-C) only.
Result block: 60.8

Query block: Answer with the recorded IC50 of CC[C@H](C)[C@H](N)C(=O)N[C@@H](CC(N)=O)C(=O)N[C@H]1CSC(=O)[C@H](CC(C)C)NC(=O)[C@H](CC(C)C)NC(=O)[C@H](Cc2ccccc2)NC(=O)[C@H](CC(=O)O)N(C)C1=O [AIP-III N-Me-D4, I-N-(C-NMeD-F-L-L)] (H-INC[NMeD]FLL; thioester 3-C) only.
Result block: 172

Query block: Answer with the recorded IC50 of CC[C@H](C)[C@H](N)C(=O)N[C@@H](C)C(=O)N[C@H]1CSC(=O)[C@H](CC(C)C)NC(=O)[C@H](CC(C)C)NC(=O)[C@H](Cc2ccccc2)NC(=O)[C@H](CC(=O)O)NC1=O [AIP-III N2A, I-A-(C-D-F-L-L)] (H-IACDFLL; thioester 3-C) only.
Result block: 3.6

###

Biological target: AgrC-II (Staphylococcus aureus, UniProt O33587)
Sequence (O33587 1-437): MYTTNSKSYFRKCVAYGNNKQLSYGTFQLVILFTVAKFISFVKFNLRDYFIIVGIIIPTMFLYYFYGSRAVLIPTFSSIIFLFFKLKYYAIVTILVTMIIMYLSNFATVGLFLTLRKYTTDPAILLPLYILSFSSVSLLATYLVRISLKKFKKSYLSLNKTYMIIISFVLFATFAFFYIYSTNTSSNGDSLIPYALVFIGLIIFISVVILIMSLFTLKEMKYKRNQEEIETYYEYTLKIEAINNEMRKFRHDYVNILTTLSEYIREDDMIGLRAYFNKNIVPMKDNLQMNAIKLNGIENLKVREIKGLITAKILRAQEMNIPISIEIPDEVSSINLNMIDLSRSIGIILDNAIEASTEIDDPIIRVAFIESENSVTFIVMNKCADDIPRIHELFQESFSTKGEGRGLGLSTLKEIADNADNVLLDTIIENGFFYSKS
Assay type: cell-based, S. aureus
Settings: read-out: AgrC-II IC50; fluorescence reporter strain; AIPs tested over 200 fM − 10 μM or (b1) 2.5 pM − 10 μM; triplicate
Positions of bridges follow the written chain, without caps; N, C: chain ends. Non-standard residues stand in square brackets, D forms with d. Residues, ends and D or L forms follow the SMILES beside them. NMeN = CN[C@@H](CC(N)=O)C(=O)O
MEASURED_ENDPOINT: pIC50
Worth noting: pIC50 values are minus log10 of concentrations stated in mol/L.

CC[C@H](C)[C@H](N)C(=O)N(C)[C@@H](CC(N)=O)C(=O)N[C@H]1CSC(=O)[C@H](CC(C)C)NC(=O)[C@H](CC(C)C)NC(=O)[C@H](Cc2ccccc2)NC(=O)[C@H](CC(=O)O)NC1=O [AIP-III N-Me-N2, I-NMeN-(C-D-F-L-L)] (H-I[NMeN]CDFLL; thioester 3-C)
8.50

Next compound, pIC50 to be filled in.
Query block: Answer with the recorded pIC50 of CC[C@H](C)[C@@H]1NC(=O)[C@H](Cc2ccccc2)NC(=O)[C@H](Cc2ccc(O)cc2)NC(=O)[C@@H](NC(=O)[C@@H](NC(=O)[C@H](CO)NC(=O)[C@@H](N)Cc2ccc(O)cc2)[C@@H](C)O)CSC(=O)[C@H](CCSC)NC1=O [AIP-IV, Y-S-T-(C-Y-F-I-M), reference compound] (H-YSTCYFIM; thioester 4-C) only.
Result block: 9.43

###

Target: UniProt O33590
Sequence (O33590 1-425): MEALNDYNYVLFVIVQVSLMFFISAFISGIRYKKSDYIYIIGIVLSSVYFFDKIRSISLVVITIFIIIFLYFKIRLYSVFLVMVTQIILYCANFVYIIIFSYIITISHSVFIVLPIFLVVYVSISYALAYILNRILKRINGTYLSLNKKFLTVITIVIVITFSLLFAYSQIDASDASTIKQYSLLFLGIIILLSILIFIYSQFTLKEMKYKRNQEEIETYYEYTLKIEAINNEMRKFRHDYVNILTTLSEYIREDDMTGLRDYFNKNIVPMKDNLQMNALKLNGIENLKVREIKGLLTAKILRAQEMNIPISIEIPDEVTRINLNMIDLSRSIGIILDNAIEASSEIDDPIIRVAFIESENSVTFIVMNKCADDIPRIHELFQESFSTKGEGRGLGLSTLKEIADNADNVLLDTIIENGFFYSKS
Assay type: cell-based, S. aureus
Conditions: read-out: AgrC-III IC50; fluorescence reporter strain; AIPs tested over 200 fM − 10 μM or (b1) 2.5 pM − 10 μM; triplicate
Positions of bridges follow the written chain, without caps; N, C: chain ends. Residues, ends and D or L forms follow the SMILES beside them.
MEASURED_ENDPOINT: pIC50
Worth noting: pIC50 values are minus log10 of concentrations stated in mol/L.

CC[C@H](C)[C@@H]1NC(=O)[C@H](Cc2ccccc2)NC(=O)[C@H](CC(=O)O)NC(=O)[C@@H](NC(=O)[C@@H](NC(=O)[C@H](CO)NC(=O)[C@@H](N)Cc2ccc(O)cc2)[C@@H](C)O)CSC(=O)[C@H](CCSC)NC1=O [AIP-I, Y-S-T-(C-D-F-I-M), reference compound] (H-YSTCDFIM; thioester 4-C)
9.28

Next compound, pIC50 to be filled in.
Query block: Answer with the recorded pIC50 of CC[C@H](C)[C@@H]1NC(=O)[C@H](Cc2ccccc2)NC(=O)[C@H](Cc2ccc(O)cc2)NC(=O)[C@@H](NC(=O)[C@@H](NC(=O)[C@H](CO)NC(=O)[C@@H](N)Cc2ccc(O)cc2)[C@@H](C)O)CSC(=O)[C@H](CCSC)NC1=O [AIP-IV, Y-S-T-(C-Y-F-I-M), reference compound] (H-YSTCYFIM; thioester 4-C) only.
Result block: 9.34
